Target: 5-hydroxytryptamine receptor 2B (Homo sapiens, UniProt P41595); further: assay procedure not described here
Sequence (P41595 whole entry): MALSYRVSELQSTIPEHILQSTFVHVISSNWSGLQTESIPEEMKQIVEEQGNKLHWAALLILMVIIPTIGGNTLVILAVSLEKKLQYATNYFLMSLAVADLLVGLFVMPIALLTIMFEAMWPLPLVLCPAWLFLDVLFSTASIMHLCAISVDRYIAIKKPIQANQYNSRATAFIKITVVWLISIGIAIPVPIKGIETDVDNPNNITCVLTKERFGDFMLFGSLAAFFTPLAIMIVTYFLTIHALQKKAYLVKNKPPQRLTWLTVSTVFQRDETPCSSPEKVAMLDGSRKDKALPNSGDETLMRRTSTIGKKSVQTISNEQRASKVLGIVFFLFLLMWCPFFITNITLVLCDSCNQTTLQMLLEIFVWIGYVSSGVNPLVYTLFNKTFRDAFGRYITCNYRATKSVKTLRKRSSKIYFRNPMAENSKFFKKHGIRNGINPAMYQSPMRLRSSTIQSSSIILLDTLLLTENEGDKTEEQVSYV
Format: functional, cell-based
assay_metric: AC50

- molecule: "NC(=O)c1cnccn1 [PYRAZINAMIDE]"
  AC50: "> 30 µM"
- molecule: "O=C(OCCN1CCOCC1)c1cccnc1Nc1cccc(C(F)(F)F)c1 [MORNIFLUMATE]"
  AC50: "> 30 µM"
- molecule: "OCCN1CCN(CCCN2c3ccccc3C=Cc3ccccc32)CC1"
  AC50: "> 30 µM"

// below: AC50 requested for another molecule
stdin: API: value(readout= AC50, system= 5-hydroxytryptamine receptor 2B (Homo sapiens, UniProt P41595), query= C[C@H]1O[C@H](O[C@H]2[C@H](O)[C@@H](O)[C@@H](O[C@H]3[C@H](O)[C@@H](O)C(O)O[C@@H]3CO)O[C@@H]2CO)[C@H](O)[C@@H](O)[C@@H]1N[C@H]1C=C(CO)[C@@H](O)[C@H](O)[C@H]1O (some centres undefined) ); further: assay procedure not described here
stdout: > 30 µM
